Hey, just so you know, these numbers are from paper PMC12586182.

# key: entry, value: Percentage inhibition of kinase enzyme activity
# target.or.system: PIM2 (Homo sapiens)
# Construct: purchased Carna Biosciences
# Sequence (Q9P1W9 whole entry): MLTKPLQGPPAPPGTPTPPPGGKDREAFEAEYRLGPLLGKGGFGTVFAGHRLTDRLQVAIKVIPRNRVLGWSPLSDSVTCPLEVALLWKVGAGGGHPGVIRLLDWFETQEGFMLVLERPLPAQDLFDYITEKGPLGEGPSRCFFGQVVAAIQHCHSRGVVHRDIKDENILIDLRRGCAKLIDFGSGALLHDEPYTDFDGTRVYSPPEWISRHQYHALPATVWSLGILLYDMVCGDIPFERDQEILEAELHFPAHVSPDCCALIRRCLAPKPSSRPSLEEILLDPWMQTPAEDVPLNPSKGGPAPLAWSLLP
# assay.summary: Kinase panel profiling at 1 µmol/L (mobility shift assay, Carna)
# Type: biochemical
# run.parameters: 1 µmol/L of BTK inhibitor
State just the number; it will be interpreted in %.

C=CC(=O)N1CCC[C@@H](n2nc(-c3ccc(Oc4ccccc4)cc3)c3c(N)ncnc32)C1
-5.09
COc1ccc(F)cc1C(=O)NCc1ccc(-c2nn([C@@H](C)C(F)(F)F)c(N)c2C(N)=O)cc1
-1.91
O=C(c1ccc(Oc2ccccc2)cc1Cl)c1c[nH]c2ncnc(N[C@@H]3CC[C@@H](CO)OC3)c12
-5.51

**Q:** Reported Percentage inhibition of kinase enzyme activity, compound `CC#CC(=O)N1CCC[C@H]1c1nc(-c2ccc(C(=O)Nc3ccccn3)cc2)c2c(N)nccn12` : ____
**A:** -16.50

----------
# target.or.system: MAPKAPK5 (Homo sapiens)
# Construct: purchased Carna Biosciences
# Sequence (Q8IW41 1-473): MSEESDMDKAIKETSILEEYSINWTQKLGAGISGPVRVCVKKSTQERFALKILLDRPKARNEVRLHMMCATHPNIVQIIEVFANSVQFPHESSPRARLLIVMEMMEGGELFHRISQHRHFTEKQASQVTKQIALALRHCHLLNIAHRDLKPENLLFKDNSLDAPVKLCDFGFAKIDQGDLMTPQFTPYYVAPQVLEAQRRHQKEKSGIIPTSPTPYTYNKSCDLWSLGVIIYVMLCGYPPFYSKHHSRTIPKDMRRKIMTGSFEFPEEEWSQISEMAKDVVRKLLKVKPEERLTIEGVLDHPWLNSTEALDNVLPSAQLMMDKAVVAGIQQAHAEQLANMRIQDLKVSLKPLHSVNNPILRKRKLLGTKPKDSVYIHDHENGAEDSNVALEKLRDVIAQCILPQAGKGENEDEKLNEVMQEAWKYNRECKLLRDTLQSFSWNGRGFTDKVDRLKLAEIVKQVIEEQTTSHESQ
# assay.summary: Kinase panel profiling at 1 µmol/L (mobility shift assay, Carna)
# Type: biochemical
# run.parameters: 1 µmol/L of BTK inhibitor
readout.kind: Percentage inhibition of kinase enzyme activity (%)
State just the number; it will be interpreted in %.

Consider the worked cases shown below.
C=CC(=O)N1CCC[C@@H](n2nc(-c3ccc(Oc4ccccc4)cc3)c3c(N)ncnc32)C1 [ibrutinib]
-2.44
CC#CC(=O)N1CCC[C@H]1c1nc(-c2ccc(C(=O)Nc3ccccn3)cc2)c2c(N)nccn12 [acalabrutinib]
-1.87

**Q:** Reported Percentage inhibition of kinase enzyme activity, compound O=C(c1ccc(Oc2ccccc2)cc1Cl)c1c[nH]c2ncnc(N[C@@H]3CC[C@@H](CO)OC3)c12 [nemtabrutinib] : ____
**A:** -2.46

**Q:** Next entry: COc1ccc(F)cc1C(=O)NCc1ccc(-c2nn([C@@H](C)C(F)(F)F)c(N)c2C(N)=O)cc1 [pirtobrutinib]
**A:** -1.10

----------
# target.or.system: WNK2 (Homo sapiens)
# Construct: purchased Carna Biosciences
# Sequence (Q9Y3S1 whole entry): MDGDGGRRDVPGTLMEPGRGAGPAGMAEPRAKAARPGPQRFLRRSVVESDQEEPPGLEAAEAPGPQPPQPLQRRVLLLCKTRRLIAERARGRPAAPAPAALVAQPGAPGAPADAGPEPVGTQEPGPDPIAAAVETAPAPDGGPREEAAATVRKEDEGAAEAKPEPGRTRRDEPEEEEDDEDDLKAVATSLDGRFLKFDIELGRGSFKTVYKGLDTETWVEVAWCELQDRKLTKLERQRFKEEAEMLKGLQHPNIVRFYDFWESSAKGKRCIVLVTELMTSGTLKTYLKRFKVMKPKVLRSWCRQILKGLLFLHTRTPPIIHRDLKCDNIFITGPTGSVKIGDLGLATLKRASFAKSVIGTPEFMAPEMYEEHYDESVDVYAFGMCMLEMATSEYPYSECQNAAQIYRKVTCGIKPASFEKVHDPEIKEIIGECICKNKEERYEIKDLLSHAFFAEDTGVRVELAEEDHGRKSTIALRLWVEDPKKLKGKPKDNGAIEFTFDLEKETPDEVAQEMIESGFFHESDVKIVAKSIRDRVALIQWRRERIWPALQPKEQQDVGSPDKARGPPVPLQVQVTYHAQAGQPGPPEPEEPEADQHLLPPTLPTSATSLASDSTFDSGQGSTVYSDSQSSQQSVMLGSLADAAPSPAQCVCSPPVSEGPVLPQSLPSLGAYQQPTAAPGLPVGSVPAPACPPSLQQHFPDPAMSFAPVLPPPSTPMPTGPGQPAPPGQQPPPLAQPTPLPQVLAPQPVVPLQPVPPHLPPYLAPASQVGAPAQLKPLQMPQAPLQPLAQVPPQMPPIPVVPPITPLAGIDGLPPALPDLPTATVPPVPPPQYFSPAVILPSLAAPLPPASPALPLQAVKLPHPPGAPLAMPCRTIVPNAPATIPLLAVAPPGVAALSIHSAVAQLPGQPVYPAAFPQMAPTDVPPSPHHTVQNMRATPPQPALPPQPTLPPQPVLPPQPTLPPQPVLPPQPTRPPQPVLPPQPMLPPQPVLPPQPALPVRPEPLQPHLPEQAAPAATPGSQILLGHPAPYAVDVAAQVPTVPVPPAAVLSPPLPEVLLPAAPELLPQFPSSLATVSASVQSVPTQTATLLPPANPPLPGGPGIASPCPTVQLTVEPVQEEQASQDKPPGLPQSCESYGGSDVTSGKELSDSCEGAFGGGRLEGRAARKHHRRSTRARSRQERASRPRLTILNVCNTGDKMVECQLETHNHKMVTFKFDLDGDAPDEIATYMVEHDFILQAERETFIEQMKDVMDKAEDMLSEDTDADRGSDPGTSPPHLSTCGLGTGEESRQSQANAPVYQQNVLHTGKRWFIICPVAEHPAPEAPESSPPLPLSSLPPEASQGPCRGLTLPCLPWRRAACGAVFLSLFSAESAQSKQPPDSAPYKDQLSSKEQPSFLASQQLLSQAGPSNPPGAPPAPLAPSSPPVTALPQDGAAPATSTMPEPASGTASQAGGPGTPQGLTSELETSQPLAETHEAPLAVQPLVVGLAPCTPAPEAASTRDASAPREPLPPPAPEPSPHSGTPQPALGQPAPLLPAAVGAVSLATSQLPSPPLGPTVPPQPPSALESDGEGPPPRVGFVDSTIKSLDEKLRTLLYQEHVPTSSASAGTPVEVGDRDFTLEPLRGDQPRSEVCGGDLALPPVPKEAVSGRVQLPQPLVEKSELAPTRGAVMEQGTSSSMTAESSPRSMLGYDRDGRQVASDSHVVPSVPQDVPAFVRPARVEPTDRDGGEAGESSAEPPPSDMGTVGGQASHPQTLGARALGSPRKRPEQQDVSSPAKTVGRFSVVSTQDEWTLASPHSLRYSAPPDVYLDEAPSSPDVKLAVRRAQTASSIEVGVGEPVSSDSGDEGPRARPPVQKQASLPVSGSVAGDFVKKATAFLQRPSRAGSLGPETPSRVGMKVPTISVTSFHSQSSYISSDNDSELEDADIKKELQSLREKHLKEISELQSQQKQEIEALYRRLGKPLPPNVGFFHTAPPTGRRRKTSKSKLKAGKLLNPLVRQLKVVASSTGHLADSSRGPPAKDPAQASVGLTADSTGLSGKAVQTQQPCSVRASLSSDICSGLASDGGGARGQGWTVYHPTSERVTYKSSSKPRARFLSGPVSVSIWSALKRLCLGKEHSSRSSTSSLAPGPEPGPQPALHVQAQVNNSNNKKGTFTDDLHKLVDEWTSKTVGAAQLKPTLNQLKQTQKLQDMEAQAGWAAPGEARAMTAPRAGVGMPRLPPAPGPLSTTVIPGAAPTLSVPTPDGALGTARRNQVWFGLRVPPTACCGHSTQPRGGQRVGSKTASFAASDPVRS
# assay.summary: Kinase panel profiling at 1 µmol/L (mobility shift assay, Carna)
# Assay type: biochemical
# run.parameters: 1 µmol/L of BTK inhibitor
readout.kind: Percentage inhibition of kinase enzyme activity (%)
State just the number; it will be interpreted in %.

Consider the worked cases shown below.
C=CC(=O)N1CCC[C@@H](n2nc(-c3ccc(Oc4ccccc4)cc3)c3c(N)ncnc32)C1
5.67
O=C(c1ccc(Oc2ccccc2)cc1Cl)c1c[nH]c2ncnc(N[C@@H]3CC[C@@H](CO)OC3)c12
47.36
COc1ccc(F)cc1C(=O)NCc1ccc(-c2nn([C@@H](C)C(F)(F)F)c(N)c2C(N)=O)cc1
11.58

**Q:** Checklist item: Percentage inhibition of kinase enzyme activity tested on WNK2 (Homo sapiens), entry `CC#CC(=O)N1CCC[C@H]1c1nc(-c2ccc(C(=O)Nc3ccccn3)cc2)c2c(N)nccn12` , value?
**A:** 0.79

----------
# key: entry, value: Percentage inhibition of kinase enzyme activity
# target.or.system: PYK2 (Homo sapiens, UniProt Q14289)
# Construct: purchased Carna Biosciences
# Sequence (Q14289 whole entry): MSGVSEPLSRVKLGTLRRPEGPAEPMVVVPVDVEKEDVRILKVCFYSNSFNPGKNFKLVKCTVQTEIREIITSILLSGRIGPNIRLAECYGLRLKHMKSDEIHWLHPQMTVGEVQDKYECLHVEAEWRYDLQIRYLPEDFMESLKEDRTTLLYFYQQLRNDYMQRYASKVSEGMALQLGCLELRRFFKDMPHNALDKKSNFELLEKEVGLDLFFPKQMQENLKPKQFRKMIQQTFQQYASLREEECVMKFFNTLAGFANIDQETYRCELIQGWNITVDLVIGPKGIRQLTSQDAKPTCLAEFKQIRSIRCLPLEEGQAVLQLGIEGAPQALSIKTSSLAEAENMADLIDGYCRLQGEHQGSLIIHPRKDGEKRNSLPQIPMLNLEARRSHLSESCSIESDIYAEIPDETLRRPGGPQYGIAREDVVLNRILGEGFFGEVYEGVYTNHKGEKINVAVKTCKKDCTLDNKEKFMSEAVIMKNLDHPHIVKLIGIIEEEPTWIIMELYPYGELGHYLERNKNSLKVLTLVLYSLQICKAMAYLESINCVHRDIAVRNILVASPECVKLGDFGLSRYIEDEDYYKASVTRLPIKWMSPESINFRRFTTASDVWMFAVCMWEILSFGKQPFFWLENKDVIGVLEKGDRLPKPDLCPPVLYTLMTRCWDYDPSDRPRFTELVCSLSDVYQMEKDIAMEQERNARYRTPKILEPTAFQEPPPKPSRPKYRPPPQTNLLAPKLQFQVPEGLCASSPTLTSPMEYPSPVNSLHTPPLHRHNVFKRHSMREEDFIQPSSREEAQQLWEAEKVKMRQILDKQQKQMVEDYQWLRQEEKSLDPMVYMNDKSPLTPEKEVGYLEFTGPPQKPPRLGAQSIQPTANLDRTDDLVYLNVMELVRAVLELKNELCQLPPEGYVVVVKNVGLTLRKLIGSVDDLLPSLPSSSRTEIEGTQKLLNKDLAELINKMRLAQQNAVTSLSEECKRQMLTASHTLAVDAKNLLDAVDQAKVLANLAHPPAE
# assay.summary: Kinase panel profiling at 1 µmol/L (mobility shift assay, Carna)
# Type: biochemical
# run.parameters: 1 µmol/L of BTK inhibitor
State just the number; it will be interpreted in %.

Consider the worked cases shown below.
O=C(c1ccc(Oc2ccccc2)cc1Cl)c1c[nH]c2ncnc(N[C@@H]3CC[C@@H](CO)OC3)c12
100.08
CC#CC(=O)N1CCC[C@H]1c1nc(-c2ccc(C(=O)Nc3ccccn3)cc2)c2c(N)nccn12
-3.55
C=CC(=O)N1CCC([C@@H]2CCNc3c(C(N)=O)c(-c4ccc(Oc5ccccc5)cc4)nn32)CC1
16.35
COc1ccc(F)cc1C(=O)NCc1ccc(-c2nn([C@@H](C)C(F)(F)F)c(N)c2C(N)=O)cc1
7.26

Consider the additional molecule presented here.
**Q:** Reported Percentage inhibition of kinase enzyme activity, molecule `C=CC(=O)N1CCC[C@@H](n2nc(-c3ccc(Oc4ccccc4)cc3)c3c(N)ncnc32)C1` : ____
**A:** 3.37

----------
# target.or.system: CaMK2δ (Homo sapiens)
# Construct: purchased Carna Biosciences
# Sequence (Q13557 whole entry): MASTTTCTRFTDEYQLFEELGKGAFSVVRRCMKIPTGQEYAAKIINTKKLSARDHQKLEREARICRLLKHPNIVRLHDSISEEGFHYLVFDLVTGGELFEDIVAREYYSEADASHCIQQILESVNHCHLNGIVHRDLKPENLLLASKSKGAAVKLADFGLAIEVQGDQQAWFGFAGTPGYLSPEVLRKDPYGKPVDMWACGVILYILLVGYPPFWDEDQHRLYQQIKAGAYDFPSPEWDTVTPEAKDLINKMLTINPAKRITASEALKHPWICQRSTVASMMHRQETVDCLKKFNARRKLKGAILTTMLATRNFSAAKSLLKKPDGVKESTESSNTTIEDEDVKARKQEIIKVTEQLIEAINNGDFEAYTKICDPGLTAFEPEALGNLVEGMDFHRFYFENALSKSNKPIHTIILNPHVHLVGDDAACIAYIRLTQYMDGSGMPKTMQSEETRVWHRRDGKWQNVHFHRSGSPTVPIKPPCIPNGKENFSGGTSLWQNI
# assay.summary: Kinase panel profiling at 1 µmol/L (mobility shift assay, Carna)
# Format: biochemical
# run.parameters: 1 µmol/L of BTK inhibitor
# key: entry, value: Percentage inhibition of kinase enzyme activity
State just the number; it will be interpreted in %.

**Q:** Reported Percentage inhibition of kinase enzyme activity, molecule COc1ccc(F)cc1C(=O)NCc1ccc(-c2nn([C@@H](C)C(F)(F)F)c(N)c2C(N)=O)cc1 [pirtobrutinib] : ____
**A:** -7.24

----------
# key: entry, value: Percentage inhibition of kinase enzyme activity
# target.or.system: IRAK4 (Homo sapiens)
# Construct: purchased Carna Biosciences
# Sequence (Q9NWZ3 1-460): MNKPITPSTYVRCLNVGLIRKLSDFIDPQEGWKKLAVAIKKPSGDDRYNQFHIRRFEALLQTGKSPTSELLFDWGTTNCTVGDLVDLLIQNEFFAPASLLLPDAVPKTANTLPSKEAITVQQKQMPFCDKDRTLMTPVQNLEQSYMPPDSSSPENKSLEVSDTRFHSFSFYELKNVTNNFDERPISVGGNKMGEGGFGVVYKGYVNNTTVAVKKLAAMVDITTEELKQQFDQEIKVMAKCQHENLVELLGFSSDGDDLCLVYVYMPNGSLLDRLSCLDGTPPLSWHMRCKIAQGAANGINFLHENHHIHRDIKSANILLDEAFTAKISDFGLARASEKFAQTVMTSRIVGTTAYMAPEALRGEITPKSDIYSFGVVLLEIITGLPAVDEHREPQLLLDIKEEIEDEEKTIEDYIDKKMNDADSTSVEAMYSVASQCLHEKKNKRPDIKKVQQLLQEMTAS
# assay.summary: Kinase panel profiling at 1 µmol/L (mobility shift assay, Carna)
# Format: biochemical
# run.parameters: 1 µmol/L of BTK inhibitor
State just the number; it will be interpreted in %.

CC#CC(=O)N1CCC[C@H]1c1nc(-c2ccc(C(=O)Nc3ccccn3)cc2)c2c(N)nccn12 [acalabrutinib]
-6.55

**Q:** Reported Percentage inhibition of kinase enzyme activity, molecule O=C(c1ccc(Oc2ccccc2)cc1Cl)c1c[nH]c2ncnc(N[C@@H]3CC[C@@H](CO)OC3)c12 [nemtabrutinib] : ____
**A:** 2.38

**Q:** Next entry: COc1ccc(F)cc1C(=O)NCc1ccc(-c2nn([C@@H](C)C(F)(F)F)c(N)c2C(N)=O)cc1 [pirtobrutinib]
**A:** -1.11

**Q:** Next entry: C=CC(=O)N1CCC[C@@H](n2nc(-c3ccc(Oc4ccccc4)cc3)c3c(N)ncnc32)C1 [ibrutinib]
**A:** -5.09

----------
# target.or.system: PKACγ (Homo sapiens)
# Construct: purchased Carna Biosciences
# Sequence (P22612 whole entry): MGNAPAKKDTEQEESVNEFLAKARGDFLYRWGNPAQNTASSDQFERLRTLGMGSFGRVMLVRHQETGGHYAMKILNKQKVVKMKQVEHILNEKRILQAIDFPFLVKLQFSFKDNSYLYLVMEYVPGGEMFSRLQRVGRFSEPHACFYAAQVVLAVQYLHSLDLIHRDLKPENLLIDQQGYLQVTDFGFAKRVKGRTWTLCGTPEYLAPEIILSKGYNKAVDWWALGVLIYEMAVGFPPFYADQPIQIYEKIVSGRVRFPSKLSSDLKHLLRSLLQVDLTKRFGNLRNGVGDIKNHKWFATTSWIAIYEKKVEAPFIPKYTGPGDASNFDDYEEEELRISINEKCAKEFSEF
# assay.summary: Kinase panel profiling at 1 µmol/L (mobility shift assay, Carna)
# Format: biochemical
# run.parameters: 1 µmol/L of BTK inhibitor
readout.kind: Percentage inhibition of kinase enzyme activity (%)
State just the number; it will be interpreted in %.

O=C(c1ccc(Oc2ccccc2)cc1Cl)c1c[nH]c2ncnc(N[C@@H]3CC[C@@H](CO)OC3)c12
11.12
CC#CC(=O)N1CCC[C@H]1c1nc(-c2ccc(C(=O)Nc3ccccn3)cc2)c2c(N)nccn12
1.68
C=CC(=O)N1CCC[C@@H](n2nc(-c3ccc(Oc4ccccc4)cc3)c3c(N)ncnc32)C1
4.90

Consider the additional compound presented here.
**Q:** Reported Percentage inhibition of kinase enzyme activity, compound `COc1ccc(F)cc1C(=O)NCc1ccc(-c2nn([C@@H](C)C(F)(F)F)c(N)c2C(N)=O)cc1` : ____
**A:** 1.36

----------
# key: entry, value: Percentage inhibition of kinase enzyme activity
# target.or.system: p38α (Homo sapiens)
# Construct: purchased Carna Biosciences
# Sequence (Q16539 whole entry): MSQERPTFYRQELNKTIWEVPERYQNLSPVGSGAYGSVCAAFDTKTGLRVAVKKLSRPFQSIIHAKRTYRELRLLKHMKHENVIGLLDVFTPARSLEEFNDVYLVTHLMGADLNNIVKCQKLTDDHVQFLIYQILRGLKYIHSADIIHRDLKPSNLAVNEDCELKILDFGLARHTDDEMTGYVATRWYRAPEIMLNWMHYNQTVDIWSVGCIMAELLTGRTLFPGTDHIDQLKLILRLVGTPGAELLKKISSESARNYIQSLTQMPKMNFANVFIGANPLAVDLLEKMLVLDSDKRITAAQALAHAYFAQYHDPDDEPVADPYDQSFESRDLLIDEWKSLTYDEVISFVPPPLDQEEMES
# assay.summary: Kinase panel profiling at 1 µmol/L (mobility shift assay, Carna)
# Assay type: biochemical
# run.parameters: 1 µmol/L of BTK inhibitor
State just the number; it will be interpreted in %.

Consider the worked cases shown below.
C=CC(=O)N1CCC[C@@H](n2nc(-c3ccc(Oc4ccccc4)cc3)c3c(N)ncnc32)C1
-2.71
COc1ccc(F)cc1C(=O)NCc1ccc(-c2nn([C@@H](C)C(F)(F)F)c(N)c2C(N)=O)cc1
-2.18
O=C(c1ccc(Oc2ccccc2)cc1Cl)c1c[nH]c2ncnc(N[C@@H]3CC[C@@H](CO)OC3)c12
2.09

Consider the additional molecule presented here.
**Q:** Reported Percentage inhibition of kinase enzyme activity, molecule `CC#CC(=O)N1CCC[C@H]1c1nc(-c2ccc(C(=O)Nc3ccccn3)cc2)c2c(N)nccn12` : ____
**A:** -0.75
